Numbers sourced from patent US20220017615A1.

Assay target: T1, biotin-labeled CD47 extracellular domain protein (CD47-ECD) (UniProt Q08722 19-139, limits assumed, biotin-labeled (sites not given))
T1 construct: extracellular domain; also called CD47 protein
T1 sequence (Q08722 19-139 limits assumed): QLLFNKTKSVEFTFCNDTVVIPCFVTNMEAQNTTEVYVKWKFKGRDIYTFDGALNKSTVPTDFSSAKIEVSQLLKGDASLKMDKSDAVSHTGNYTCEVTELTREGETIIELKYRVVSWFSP
Protocol details: blocking ELISA, biotin-CD47-ECD on coated SIRPα-hFc; Ab 1.6 nM
Measured parameter: OD450 nm of CD47 bound to SIRPα
Reply: number alone, nothing else.

// lookup OD450 nm of CD47 bound to SIRPα for 4D10B11 (antibody, V domains shown, Murine hybridoma antibody purified on protein G) VH: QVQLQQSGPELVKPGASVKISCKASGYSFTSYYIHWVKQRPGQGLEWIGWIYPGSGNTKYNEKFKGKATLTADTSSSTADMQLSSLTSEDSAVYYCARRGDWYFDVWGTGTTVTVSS VL: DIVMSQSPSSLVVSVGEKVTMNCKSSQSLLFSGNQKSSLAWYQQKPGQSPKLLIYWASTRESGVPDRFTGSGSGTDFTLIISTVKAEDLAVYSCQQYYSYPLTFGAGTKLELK
0.15
